Listed here: items and their measured pIC50.
TEST DESCRIPTION: Cytotoxicity against human MDA-MB-231 ER negative, PR negative,HER2 negative cells assessed as cell growth inhibition after 24 hrs by MTT assay
Assay type: functional, cell-based
CONDITION PARAMETERS: MDA-MB-231, 24 h
pIC50: −log10 of the molar value.
MEASURE NAME: pIC50

>>> value_reported("O=c1cc(OCc2nc3ccccc3[nH]2)c2ccc3ccccc3c2[nH]1")
6.93
>>> value_reported("O=c1cc(OCc2ccccc2)c2ccc3ccccc3c2[nH]1")
7.20
>>> value_reported("O=c1cc(OCc2ccc([N+](=O)[O-])cc2)c2ccc3ccccc3c2[nH]1")
6.74
>>> value_reported("O=C(Oc1cc(=O)[nH]c2c1ccc1ccccc12)c1ccc([N+](=O)[O-])cc1")
4.16
>>> value_reported("COc1ccc(COc2cc(=O)[nH]c3c2ccc2ccccc23)cc1")
6.75
>>> value_reported("O=C(Oc1cc(=O)[nH]c2c1ccc1ccccc12)c1ccc(F)cc1F")
4.15
>>> value_reported("CCC(=O)Oc1cc(=O)[nH]c2c1ccc1ccccc12")
4.46
>>> value_reported("O=C(Oc1cc(=O)[nH]c2c1ccc1ccccc12)c1ccccc1")
4.31
>>> value_reported("O=c1cc(OS(=O)(=O)c2ccc(F)cc2)c2ccc3ccccc3c2[nH]1")
3.80
>>> value_reported("O=C(/C=C/c1ccc([N+](=O)[O-])cc1)Oc1cc(=O)[nH]c2c1ccc1ccccc12")
4.36
>>> value_reported("O=c1cc(OS(=O)(=O)c2ccc(C(F)(F)F)cc2)c2ccc3ccccc3c2[nH]1")
3.86
>>> value_reported("CCCC(=O)Oc1cc(=O)[nH]c2c1ccc1ccccc12")
4.42
>>> value_reported("CC(C)CC(=O)Oc1cc(=O)[nH]c2c1ccc1ccccc12")
4.24
